- experimental_system: T1, purified interference factor(s), Donor A
- T1 construct: also called interference in serum from Donor A
- test: SPR, interference factor immobilized
experimental_readout: % of binding of reference (=100%)
Record the value in %, omitting the unit from your answer.

binder	% of binding of reference (=100%)
SEQ ID NO: 49 (VHH, Ex. 8; V5L, I23A, E44G, A49S, A68T, A74S, T78L, W79Y, K83R, T110Q, Q108L) VHH: EVQLLESGGGLVQPGGSLRLSCAASGLPFSTKSMGWFRQAPGKGREFVSRISPGGTSRYYGDFVKGRFTISRDNSKNTLYLQMNSLRAEDTAVYYCASGERSTYIGSNYYRTNEYDYWGQGTLVTVSS	0

Then this binder:
So what does the record say about % of binding of reference (=100%) for SEQ ID NO: 71 (VHH, Ex. 8) VHH: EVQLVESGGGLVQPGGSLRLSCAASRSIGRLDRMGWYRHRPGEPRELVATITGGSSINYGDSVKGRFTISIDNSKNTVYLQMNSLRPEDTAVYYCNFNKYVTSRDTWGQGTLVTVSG ?
88
